system: 885512-296-R-J2-PDC complex spheroid growth, % test/control; assay: Anticancer human tumor 885512-296-R-J2-PDC patient-derived breast carcinoma cell line growth inhibition [AhR]; details: second compound 10 µM; first compound 0.0316 µM; active compounds read low;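 also: spheroids exposed to compounds for seven days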
Categories are assigned from the measured viability, T/C using these intervals: low bracket (below 60%), middle bracket (60% to below 80%), high bracket (80% or more)

Compound	System under test	Group
CC1COCCN1c1cc(C2(S(C)(=N)=O)CC2)nc(-c2ccnc3[nH]ccc23)n1 (stereo not drawn) + CC(CO)NC(=O)c1cc(-c2ccc(Cl)cc2)nn(-c2cnn(C)c2)c1=O	885512-296-R-J2-PDC complex spheroid growth, % test/control	high bracket
NS(=O)(=O)OCC1CC(n2ccc3c(NC4CCc5ccccc54)ncnc32)CC1O (stereo not drawn) + Cc1ccccc1N=Nc1ccc(NC(=O)c2ccnn2C)c(C)c1	885512-296-R-J2-PDC complex spheroid growth, % test/control	middle bracket
CC1COCCN1c1cc(C2(S(C)(=N)=O)CC2)nc(-c2ccnc3[nH]ccc23)n1 (stereo not drawn) + Cc1ccccc1N=Nc1ccc(NC(=O)c2ccnn2C)c(C)c1	885512-296-R-J2-PDC complex spheroid growth, % test/control	low bracket
O=C(c1cc(Cc2n[nH]c(=O)c3ccccc23)ccc1F)N1CCN(C(=O)C2CC2)CC1 + CC(CO)NC(=O)c1cc(-c2ccc(Cl)cc2)nn(-c2cnn(C)c2)c1=O	885512-296-R-J2-PDC complex spheroid growth, % test/control	high bracket
COc1cc(Nc2ncc3c(n2)-c2ccc(Cl)cc2C(c2c(F)cccc2OC)=NC3)ccc1C(=O)O + CC(CO)NC(=O)c1cc(-c2ccc(Cl)cc2)nn(-c2cnn(C)c2)c1=O	885512-296-R-J2-PDC complex spheroid growth, % test/control	low bracket
COc1cc(C2c3cc4c(cc3C(OC3OC5COC(C)OC5C(O)C3O)C3COC(=O)C23)OCO4)cc(OC)c1O (stereo not drawn) + CC(CO)NC(=O)c1cc(-c2ccc(Cl)cc2)nn(-c2cnn(C)c2)c1=O	885512-296-R-J2-PDC complex spheroid growth, % test/control	high bracket
Nc1ncn(C2CC(O)C(CO)O2)c(=O)n1 (stereo not drawn) + Cc1ccccc1N=Nc1ccc(NC(=O)c2ccnn2C)c(C)c1	885512-296-R-J2-PDC complex spheroid growth, % test/control	middle bracket
CC[C@@]1(O)C(=O)OCc2c1cc1n(c2=O)Cc2cc3c(CN(C)C)c(O)ccc3nc2-1 + Cc1cncc(-c2nc(NCCc3c[nH]c4ccccc34)c3ncn(C(C)C)c3n2)c1	885512-296-R-J2-PDC complex spheroid growth, % test/control	low bracket
Cn1ncnc1C1c2n[nH]c(=O)c3cc(F)cc(c23)NC1c1ccc(F)cc1 (stereo not drawn) + CC(CO)NC(=O)c1cc(-c2ccc(Cl)cc2)nn(-c2cnn(C)c2)c1=O	885512-296-R-J2-PDC complex spheroid growth, % test/control	middle bracket
CC1COCCN1c1cc(C2(S(C)(=N)=O)CC2)nc(-c2ccnc3[nH]ccc23)n1 (stereo not drawn) + Cc1cncc(-c2nc(NCCc3c[nH]c4ccccc34)c3ncn(C(C)C)c3n2)c1	885512-296-R-J2-PDC complex spheroid growth, % test/control	low bracket
Nc1ncn(C2CC(O)C(CO)O2)c(=O)n1 (stereo not drawn) + CC(CO)NC(=O)c1cc(-c2ccc(Cl)cc2)nn(-c2cnn(C)c2)c1=O	885512-296-R-J2-PDC complex spheroid growth, % test/control	high bracket
COc1cc(C2c3cc4c(cc3C(OC3OC5COC(C)OC5C(O)C3O)C3COC(=O)C23)OCO4)cc(OC)c1O (stereo not drawn) + Cc1cncc(-c2nc(NCCc3c[nH]c4ccccc34)c3ncn(C(C)C)c3n2)c1	885512-296-R-J2-PDC complex spheroid growth, % test/control	low bracket
COc1ccc([C@@H](O)c2cc(-c3ncnc4cc(N5CCOCC5)ccc34)c(F)cc2Cl)nn1 + CC(CO)NC(=O)c1cc(-c2ccc(Cl)cc2)nn(-c2cnn(C)c2)c1=O	885512-296-R-J2-PDC complex spheroid growth, % test/control	high bracket
